Test system: HT29
assay comment: Proliferation assay HT29
Assay type: cell-based
applied conditions: Homo sapiens, HT-29, Colon, 72 hours
pIC50 values by entry
Just so you know, pIC50 here is -log10 of the concentration in molar units; reply with that number alone.

So for N#C/C(=C\c1cc(O)c(O)c(Br)c1)C(=S)NCc1cc(O)c(O)c(O)c1 [Compound 7] , the logged pIC50 turned out to be 5.17

So for Oc1cc(CNC(=S)/C=C/c2cc(O)c(O)c(Br)c2)cc(O)c1O [Compound 9] , the logged pIC50 turned out to be 5.82

So for N#C/C(=C\c1cc(O)c(O)c(I)c1)C(=S)NCc1cc(O)c(O)c(O)c1 [Compound 8] , the logged pIC50 turned out to be 5.21

----------
pIC50 values by entry
system under test: IGF1R (Homo sapiens, UniProt P08069)
Construct: made in house
Sequence (P08069 31-1367, species assumed): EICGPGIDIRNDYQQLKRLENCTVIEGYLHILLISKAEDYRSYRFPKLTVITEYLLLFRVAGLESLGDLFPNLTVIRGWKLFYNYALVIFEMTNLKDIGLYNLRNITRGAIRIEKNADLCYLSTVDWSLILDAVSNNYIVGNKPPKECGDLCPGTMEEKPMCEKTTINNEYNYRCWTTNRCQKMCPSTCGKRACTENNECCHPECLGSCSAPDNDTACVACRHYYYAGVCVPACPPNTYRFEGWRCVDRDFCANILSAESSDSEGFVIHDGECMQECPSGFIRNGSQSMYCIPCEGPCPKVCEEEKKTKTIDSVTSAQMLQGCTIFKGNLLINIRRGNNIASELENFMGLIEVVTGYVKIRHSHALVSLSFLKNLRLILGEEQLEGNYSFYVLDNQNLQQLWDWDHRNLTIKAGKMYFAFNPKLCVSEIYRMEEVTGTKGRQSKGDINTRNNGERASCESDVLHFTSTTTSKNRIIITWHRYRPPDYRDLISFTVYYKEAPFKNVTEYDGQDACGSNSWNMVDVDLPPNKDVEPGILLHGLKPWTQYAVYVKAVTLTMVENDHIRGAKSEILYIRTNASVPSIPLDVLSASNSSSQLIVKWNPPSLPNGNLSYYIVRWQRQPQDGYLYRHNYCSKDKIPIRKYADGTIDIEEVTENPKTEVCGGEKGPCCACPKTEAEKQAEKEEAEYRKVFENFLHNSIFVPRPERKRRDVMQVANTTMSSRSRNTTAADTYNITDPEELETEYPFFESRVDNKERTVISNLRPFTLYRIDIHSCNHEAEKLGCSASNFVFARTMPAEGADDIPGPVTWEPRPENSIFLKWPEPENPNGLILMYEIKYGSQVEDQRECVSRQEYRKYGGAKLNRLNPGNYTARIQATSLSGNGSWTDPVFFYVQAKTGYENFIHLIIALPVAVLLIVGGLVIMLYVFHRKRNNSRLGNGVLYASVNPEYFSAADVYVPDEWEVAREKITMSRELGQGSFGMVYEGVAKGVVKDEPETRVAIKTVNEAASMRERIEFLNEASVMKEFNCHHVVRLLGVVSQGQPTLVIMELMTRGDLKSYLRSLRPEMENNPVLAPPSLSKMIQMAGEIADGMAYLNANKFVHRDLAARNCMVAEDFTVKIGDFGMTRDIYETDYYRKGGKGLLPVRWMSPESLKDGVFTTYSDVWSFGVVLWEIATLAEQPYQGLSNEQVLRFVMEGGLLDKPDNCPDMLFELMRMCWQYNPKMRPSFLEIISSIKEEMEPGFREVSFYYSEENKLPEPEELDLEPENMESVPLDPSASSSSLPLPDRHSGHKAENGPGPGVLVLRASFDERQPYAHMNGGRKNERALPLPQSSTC
assay comment: IGF1R cellular free kinase assay (pGT substrate phosphorylation)
Format: biochemical
applied conditions: partially purified IGF1R; 20 μM ATP; read-out: IC50 values of IGF1R activity in cellular free kinase assay
Just so you know, pIC50 here is -log10 of the concentration in molar units; reply with that number alone.

input smiles | value reported
Oc1cc(CNC(=S)/C=C/c2cc(O)c(O)c(Br)c2)cc(O)c1O | 7.11
N#C/C(=C\c1cc(O)c(O)c(C(F)(F)F)c1)C(=S)NCc1cc(O)c(O)c(O)c1 | 7.17
Oc1cc(/C=C/C(=S)NCc2cc(O)c(O)c(Br)c2)cc(Br)c1O | 6.71
N#C/C(=C\c1cc(O)c(O)c(Br)c1)C(=S)NCc1ccc(O)c(O)c1 | 6.94
N#C/C(=C\c1cc(O)c(O)c(Br)c1)C(=S)NCc1cc(O)c(O)c(O)c1 | 6.94

So for `N#C/C(=C\c1cc(O)c(O)c(I)c1)C(=S)NCc1ccc(O)c(O)c1` , the logged pIC50 turned out to be 6.71

So for `N#C/C(=C\c1cc(O)c(O)c(O)c1)C(=S)NCc1cc(O)c(O)c(Br)c1` , the logged pIC50 turned out to be 7.31

----------
Tested on: DU145
assay comment: Proliferation assay DU145
Assay type: cell-based
applied conditions: Homo sapiens, DU-145, Prostate, 72 hours
IC50 values by entry

Solved cases below.
input smiles | IC50
N#C/C(=C\c1cc(O)c(O)c(Br)c1)C(=S)NCc1cc(O)c(O)c(Br)c1 | > 10 µM
N#C/C(=C\c1cc(O)c(O)c(Br)c1)C(=S)NCc1cc(O)c(O)c(O)c1 | 6.6 µM
Oc1cc(CNC(=S)/C=C/c2cc(O)c(O)c(Br)c2)cc(O)c1O | 1.8 µM

Field: next molecule
So for `N#C/C(=C\c1cc(O)c(O)c(I)c1)C(=S)NCc1cc(O)c(O)c(O)c1` , the logged IC50 turned out to be 6.5 µM

----------
System: U138MG
assay comment: Clonogenic assay U138MG
Type: cell-based
applied conditions: Homo sapiens, U138-MG, Glioma
result type: IC50 (nM)
Report as a plain number; the unit nM is understood.

input smiles | IC50 [nM]
N#C/C(=C\c1cc(O)c(O)c(Br)c1)C(=S)NCc1cc(O)c(O)c(Br)c1 | 2200
Oc1cc(CNC(=S)/C=C/c2cc(O)c(O)c(Br)c2)cc(O)c1O | 500

So for `N#C/C(=C\c1cc(O)c(O)c(I)c1)C(=S)NCc1cc(O)c(O)c(O)c1` , the logged IC50 turned out to be 1600

So for `N#C/C(=C\c1cc(O)c(O)c(Br)c1)C(=S)NCc1cc(O)c(O)c(O)c1` , the logged IC50 turned out to be 1800

----------
system under test: IGF1R (Homo sapiens, UniProt P08069)
Construct: made in house
assay comment: IGF1R cellular free kinase assay (pGT substrate phosphorylation)
Type: biochemical
applied conditions: [ATP] 2.5 μM; read-out: IC50, competition with ATP in cellular free kinase assay of IGF1R
result type: pIC50
Just so you know, pIC50 here is -log10 of the concentration in molar units; reply with that number alone.

compound | pIC50
N#C/C(=C\c1cc(O)c(O)c(Br)c1)C(=S)NCc1cc(O)c(O)c(O)c1 [Compound 7] | 6.72
N#C/C(=C\c1cc(O)c(O)c(Br)c1)C(=S)NCc1cc(O)c(O)c(Br)c1 [Compound 6] | 7.13

Field: next compound
So for N#C/C(=C\c1cc(O)c(O)c(I)c1)C(=S)NCc1cc(O)c(O)c(O)c1 [Compound 8] , the logged pIC50 turned out to be 6.72

----------
pIC50 values by entry
Tested on: OVCAR3
assay comment: Proliferation assay OVCAR3
Format: cell-based
applied conditions: Homo sapiens, OVCAR-3, Ovarian, 72 hours
Procedure: Various cancer cell lines (listed in table 1) were plated at a density of 1000-5000 cells/well in 96-well plates in 90111 growth medium containing 10% FCS, 100 units/ml penicillin and 100 μg/ml streptomycin. Inhibitors were added a day later in 10 μl of 1% DMSO in DDW to obtain final concentrations of 0, 0.1, 0.3, 1, 3, and 10 μM. […] The optical density value was read at 620 nm in ELISA plate reader. The data was analyzed in Microsoft Excel, using the vehicle control as 100% proliferation. […]
Just so you know, pIC50 here is -log10 of the concentration in molar units; reply with that number alone.

input smiles | pIC50
N#C/C(=C\c1cc(O)c(O)c(I)c1)C(=S)NCc1cc(O)c(O)c(O)c1 | 5.72
N#C/C(=C\c1cc(O)c(O)c(Br)c1)C(=S)NCc1cc(O)c(O)c(O)c1 | 5.70

So for `Oc1cc(CNC(=S)/C=C/c2cc(O)c(O)c(Br)c2)cc(O)c1O` , the logged pIC50 turned out to be 6.05

----------
Test system: B16
assay comment: Proliferation assay B16
Format: cell-based
applied conditions: Mus musculus, Melanoma, 72 hours
result type: IC50 (nM)
Report as a plain number; the unit nM is understood.

Solved cases below.
input smiles | reading unit | IC50
N#C/C(=C\c1cc(O)c(O)c(Br)c1)C(=S)NCc1cc(O)c(O)c(O)c1 | nM | 1900
Oc1cc(CNC(=S)/C=C/c2cc(O)c(O)c(Br)c2)cc(O)c1O | nM | 1400
N#C/C(=C\c1cc(O)c(O)c(Br)c1)C(=S)NCc1cc(O)c(O)c(Br)c1 | nM | 7900

Field: next molecule
Result for `N#C/C(=C\c1cc(O)c(O)c(I)c1)C(=S)NCc1cc(O)c(O)c(O)c1` , tested on B16, IC50: 1700

----------
IC50 values by entry
System: YURIF
assay comment: Proliferation assay YURIF
Assay type: cell-based
applied conditions: Homo sapiens; Melanoma, YURIF; 72 hours; read-out: Proliferation assay IC50
Protocol: Various cancer cell lines (listed in table 1) were plated at a density of 1000-5000 cells/well in 96-well plates in 90111 growth medium containing 10% FCS, 100 units/ml penicillin and 100 μg/ml streptomycin. Inhibitors were added a day later in 10 μl of 1% DMSO in DDW to obtain final concentrations of 0, 0.1, 0.3, 1, 3, and 10 μM. […] The optical density value was read at 620 nm in ELISA plate reader. The data was analyzed in Microsoft Excel, using the vehicle control as 100% proliferation. […]
Report as a plain number; the unit µM is understood.

Solved cases below.
input smiles | system under test | reading unit | IC50
N#C/C(=C\c1cc(O)c(O)c(I)c1)C(=S)NCc1cc(O)c(O)c(O)c1 | YURIF | µM | 1.6
Oc1cc(CNC(=S)/C=C/c2cc(O)c(O)c(Br)c2)cc(O)c1O | YURIF | µM | 0.7

So for `N#C/C(=C\c1cc(O)c(O)c(Br)c1)C(=S)NCc1cc(O)c(O)c(O)c1` , the logged IC50 turned out to be 1.4

----------
System: YURIF
assay comment: Proliferation assay YURIF
Assay type: cell-based
applied conditions: Homo sapiens; Table 4; 72 hours incubation; read-out: Inhibition of human metastatic melanoma cells, YURIF IC50
pIC50: −log10 of the molar value.
pIC50 values by entry

So for `N#C/C(=C\c1cc(O)c(O)c(O)c1)C(=S)NCc1cc(O)c(O)c(Br)c1` , the logged pIC50 turned out to be < 5.00

So for `N#C/C(=C\c1cc(O)c(O)c(Br)c1)C(=S)NCc1cc(O)c(O)c(Br)c1` , the logged pIC50 turned out to be < 5.00

So for `N#C/C(=C\c1cccc(Br)c1)C(=S)NCc1cc(O)c(O)c(O)c1` , the logged pIC50 turned out to be < 5.00
